- Tested on: ACHN
- Experiment description: NCI60 one-dose screen (10 μM), Renal Cancer
- Format: cell-based
- Measurement setup: Homo sapiens, 10 μM, Renal Cancer, read-out: Growth percent rate
Lab note: compare activity at 10 µM against 70%. Equal or greater, write class 1. Smaller, write class 0.

[
  {
    "Molecule": "CC[C@]12C=CCN3CC[C@@]4(c5ccc(OC)cc5N(C)[C@H]4[C@@](O)(C(=O)OC)[C@@H]1OC(=O)CCCN1CCN(Cc4ccc(F)cc4)CC1)[C@@H]32",
    "Group": "class 0"
  },
  {
    "Molecule": "CCC12C=CCN3CCC4(c5cc(NC(=O)CN6CCN(c7ccc(C(F)(F)F)cc7)CC6)c(OC)cc5N(C)C4C(O)(C(=O)OC)C1OC(C)=O)C32 (centres unmarked)",
    "Group": "class 0"
  },
  {
    "Molecule": "CCC12C=CCN3CCC4(c5cc(NC(=O)CN6CCN(C(=O)c7ccco7)CC6)c(OC)cc5N(C)C4C(O)(C(=O)OC)C1OC(C)=O)C32 (centres unmarked)",
    "Group": "class 1"
  },
  {
    "Molecule": "CC[C@]12C=CCN3CC[C@@]4(c5ccc(OC)cc5N(C)[C@H]4[C@@](O)(C(=O)OC)[C@@H]1OC(=O)CCC(=O)N1CCN(C)CC1)[C@@H]32",
    "Group": "class 1"
  }
]

* * *

- Test system: ACHN
- Experiment description: NCI60 one-dose screen (10 μM), Renal Cancer
- Assay type: cell-based
- Measurement setup: Homo sapiens, 10 μM, Renal Cancer, read-out: Growth percent rate
Measured property: activity at 10 µM (%)

[
  {
    "Compound": "CC[C@]12C=CCN3CC[C@@]4(c5ccc(OC)cc5N(C)[C@H]4[C@@](O)(C(=O)OC)[C@@H]1OC(=O)CCC(=O)N1CCN(C(c4ccc(F)cc4)c4ccc(F)cc4)CC1)[C@@H]32",
    "Measured property": "activity at 10 µM",
    "Recorded result": -35.8
  },
  {
    "Compound": "CCC12C=CCN3CCC4(c5cc(NC(=O)CCl)c(OC)cc5N(C)C4C(O)(C(=O)OC)C1OC(C)=O)C32 (stereo not drawn)",
    "Measured property": "activity at 10 µM",
    "Recorded result": 37.3
  },
  {
    "Compound": "CC[C@]12C=CCN3CC[C@@]4(c5ccc(OC)cc5N(C)[C@H]4[C@@](O)(C(=O)OC)[C@@H]1OC(=O)CCCN1CCN(Cc4ccc(C(F)(F)F)cc4)CC1)[C@@H]32",
    "Measured property": "activity at 10 µM",
    "Recorded result": -78.1
  },
  {
    "Compound": "CCC12C=CCN3CCC4(c5ccc(OC)cc5N(C)C4C(O)(C(=O)OC)C1OC(=O)CCCN1CCN(C)CC1)C32 (stereo not drawn)",
    "Measured property": "activity at 10 µM",
    "Recorded result": 103
  },
  {
    "Compound": "CCC12C=CCN3CCC4(c5cc(NC(=O)CN6CCN(C)CC6)c(OC)cc5N(C)C4C(O)(C(=O)OC)C1OC(C)=O)C32 (stereo not drawn)",
    "Measured property": "activity at 10 µM",
    "Recorded result": 104
  },
  {
    "Compound": "CCC12C=CCN3CCC4(c5ccc(OC)cc5N(C)C4C(O)(C(=O)OC)C1OC(=O)CCCBr)C32 (stereo not drawn)",
    "Measured property": "activity at 10 µM",
    "Recorded result": 99.8
  },
  {
    "Compound": "CC[C@]12C=CCN3CC[C@@]4(c5ccc(OC)cc5N(C)[C@H]4[C@@](O)(C(=O)OC)[C@@H]1OC(=O)CCC(=O)N1CCN(c4ccc(C(F)(F)F)cc4)CC1)[C@@H]32",
    "Measured property": "activity at 10 µM",
    "Recorded result": -3.87
  },
  {
    "Compound": "CCC12C=CCN3CCC4(c5ccc(OC)cc5N(C)C4C(O)(C(=O)OC)C1OC(=O)CCC(=O)O)C32 (stereo not drawn)",
    "Measured property": "activity at 10 µM",
    "Recorded result": 102
  },
  {
    "Compound": "CC[C@]12C=CCN3CC[C@@]4(c5ccc(OC)cc5N(C)[C@H]4[C@@](O)(C(=O)OC)[C@@H]1OC(=O)CCC(=O)N1CCN(Cc4ccc(C(F)(F)F)cc4)CC1)[C@@H]32",
    "Measured property": "activity at 10 µM",
    "Recorded result": 3.7
  },
  {
    "Compound": "CCC12C=CCN3CCC4(c5cc(NC(=O)CN6CCN(C(c7ccc(F)cc7)c7ccc(F)cc7)CC6)c(OC)cc5N(C)C4C(O)(C(=O)OC)C1OC(C)=O)C32 (stereo not drawn)",
    "Measured property": "activity at 10 µM",
    "Recorded result": 11.4
  },
  {
    "Compound": "CC[C@]12C=CCN3CC[C@@]4(c5ccc(OC)cc5N(C)[C@H]4[C@@](O)(C(=O)OC)[C@@H]1OC(=O)CCCN1CCN(C(=O)c4ccco4)CC1)[C@@H]32",
    "Measured property": "activity at 10 µM",
    "Recorded result": 103
  },
  {
    "Compound": "CC[C@]12C=CCN3CC[C@@]4(c5ccc(OC)cc5N(C)[C@H]4[C@@](O)(C(=O)OC)[C@@H]1OC(=O)CCCN1CCN(c4ccc(C(F)(F)F)cc4)CC1)[C@@H]32",
    "Measured property": "activity at 10 µM",
    "Recorded result": -20.3
  }
]

* * *

Quick list: GI50 per entry.
- System: KM12
- Experiment description: NCI60 five-dose screen, Colon Cancer
- Type: cell-based
- Measurement setup: Homo sapiens; KM12, Colon Cancer; five-dose screen; read-out: GI50

[
  {
    "Compound": "CC[C@]12C=CCN3CC[C@@]4(c5ccc(OC)cc5N(C)[C@H]4[C@@](O)(C(=O)OC)[C@@H]1OC(=O)CCCN1CCN(c4ccc(C(F)(F)F)cc4)CC1)[C@@H]32 [Compound 22]",
    "Tgt": "KM12",
    "Value unit": "nM",
    "GI50": 2140
  },
  {
    "Compound": "CC[C@]12C=CCN3CC[C@@]4(c5ccc(OC)cc5N(C)[C@H]4[C@@](O)(C(=O)OC)[C@@H]1OC(=O)CCC(=O)N1CCN(C(c4ccc(F)cc4)c4ccc(F)cc4)CC1)[C@@H]32 [Compound 31]",
    "Tgt": "KM12",
    "Value unit": "nM",
    "GI50": 2360
  },
  {
    "Compound": "CCC12C=CCN3CCC4(c5cc(NC(=O)CN6CCN(C(c7ccc(F)cc7)c7ccc(F)cc7)CC6)c(OC)cc5N(C)C4C(O)(C(=O)OC)C1OC(C)=O)C32 (stereo not drawn) [Compound 20]",
    "Tgt": "KM12",
    "Value unit": "nM",
    "GI50": 3980
  }
]

* * *

Quick list: activity at 10 µM per entry.
- System: HCT-116
- Experiment description: NCI60 one-dose screen (10 μM), Colon Cancer
- Format: cell-based
- Measurement setup: Homo sapiens; 10 μM; HCT-116, Colon Cancer; read-out: Growth percent rate

[
  {
    "Compound": "CC[C@]12C=CCN3CC[C@@]4(c5ccc(OC)cc5N(C)[C@H]4[C@@](O)(C(=O)OC)[C@@H]1OC(=O)CCC(=O)N1CCN(c4ccc(C(F)(F)F)cc4)CC1)[C@@H]32",
    "activity at 10 µM, %": 29.4
  },
  {
    "Compound": "CC[C@]12C=CCN3CC[C@@]4(c5ccc(OC)cc5N(C)[C@H]4[C@@](O)(C(=O)OC)[C@@H]1OC(=O)CCC(=O)N1CCN(Cc4ccc(C(F)(F)F)cc4)CC1)[C@@H]32",
    "activity at 10 µM, %": 7.59
  },
  {
    "Compound": "CCC12C=CCN3CCC4(c5cc(NC(=O)CN6CCN(C(=O)c7ccco7)CC6)c(OC)cc5N(C)C4C(O)(C(=O)OC)C1OC(C)=O)C32 (centres unmarked)",
    "activity at 10 µM, %": 108
  },
  {
    "Compound": "CC[C@]12C=CCN3CC[C@@]4(c5ccc(OC)cc5N(C)[C@H]4[C@@](O)(C(=O)OC)[C@@H]1OC(=O)CCCN1CCN(c4ccc(C(F)(F)F)cc4)CC1)[C@@H]32",
    "activity at 10 µM, %": -25.6
  },
  {
    "Compound": "CCC12C=CCN3CCC4(c5ccc(OC)cc5N(C)C4C(O)(C(=O)OC)C1OC(=O)CCCN1CCN(C)CC1)C32 (centres unmarked)",
    "activity at 10 µM, %": 112
  }
]

Taken from paper PMC11277489.
